- subjectOfTest: T1, GST-Rho-N-Strep (RHON1 C-terminal Rho-N domain) (Arabidopsis thaliana, UniProt Q94K75 362-401)
- T1 chain: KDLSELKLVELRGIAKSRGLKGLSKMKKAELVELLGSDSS
- experimentDescription: EMSA

binder: 23S-4.5Sa dsRNA (dsRNA) RNA 1: UUCCUCUAUUUGUUCGAUAGGGGAGAUUCCGACUUCCCCAGAGCCUCCGGUAGCACAGCCGAGACAGCAACGGGUUCUCCGCCCCUGCGGGGAUG RNA 2: CAUCCCCGCAGGGGCGGAGAACCCGUUGCUGUCUCGGCUGUGCUACCGGAGGCUCUGGGGAAGUCGGAAUCUCCCCUAUCGAACAAAUAGAGGAA
binding result: no binding
--
binder: UUCUAGUACAACUAUUGCAGUAGAAUGACAA (ssRNA) [petA 5' UTR 31-mer]
binding result: no binding
--
binder: petB 5' UTR (ssRNA) RNA: GGUAGUUCGACCGCGAAAUUUUUUUCUGCAUUGUAUAUUUCCGGAAUAUGAGUGUGUGACUUGUUAGAAU
binding result: binds
--
binder: petB 3' UTR (ssRNA) RNA: GACUGAAGCUAACUUUGGUUGGUUAAUCCGAUCAGUUCAUCGAUGGUCGGCAAGUAUGAUGGUCCUAAUG
binding result: binds
